# assay system: HLA-B*51:01
# experiment: IEDB peptide-MHC binding, purified MHC/competitive/fluorescence; filed as Kd, often an IC50 or EC50 that approximates it; bounds were set here for any values at or beyond the usual limits of such assays
# protocol conditions: source organism: Variola virus
assay metric: Kd (nM)
# unit: nM | format: bare number

Ask: // returns reported Kd for input FPPEIINVI
Reply: 213

---

# assay system: HLA-B*39:01
# experiment: IEDB peptide-MHC binding, purified MHC/competitive/fluorescence; filed as Kd, often an IC50 or EC50 that approximates it; bounds were set here for any values at or beyond the usual limits of such assays
# protocol conditions: source organism: Influenza A virus (A/red knot/Delaware/2561/1987(H10N5))
pKd: −log10 of the molar value.
assay metric: pKd

Ask: Value lookup for pKd; key = VMTDGPANK
Reply: ≤ 4.70

---

# assay system: HLA-A*02:03
# experiment: IEDB peptide-MHC binding, purified MHC/competitive/fluorescence; filed as Kd, often an IC50 or EC50 that approximates it; bounds were set here for any values at or beyond the usual limits of such assays
# protocol conditions: source organism: Entamoeba histolytica HM-1:IMSS
assay metric: Kd

EVIRATYPS = ≥ 20 µM

Moving on to the next sequence.
Ask: HLA-A*02:03 / Kd / RTFDRFFEE : value?
Reply: ≥ 20 µM

---

# assay system: HLA-A*02:06
# experiment: IEDB peptide-MHC binding, purified MHC/competitive/radioactivity; filed as Kd, often an IC50 or EC50 that approximates it; bounds were set here for any values at or beyond the usual limits of such assays
# protocol conditions: source organism: Dengue virus 4 Philippines/H241/1956
assay metric: Kd (nM)
Report as a plain number; the unit nM is understood.

Ask: Observed Kd on HLA-A*02:06 for IQRTVFFVL , please.
Reply: 12.3

---

# assay system: HLA-A*26:01
# experiment: IEDB peptide-MHC binding, purified MHC/direct/fluorescence; filed as Kd, often an IC50 or EC50 that approximates it; bounds were set here for any values at or beyond the usual limits of such assays
# protocol conditions: source organism: Rickettsia sibirica
assay metric: Kd

Ask: Can you look up the measured Kd of AIKPITDQF for me?
Reply: ≥ 20 µM

---

# assay system: HLA-B*39:01
# experiment: IEDB peptide-MHC binding, purified MHC/competitive/fluorescence; filed as Kd, often an IC50 or EC50 that approximates it; bounds were set here for any values at or beyond the usual limits of such assays
# protocol conditions: source organism: Cryptosporidium parvum Iowa II
pKd: −log10 of the molar value.
assay metric: pKd

Ask: Using the record for DLAQDPMLI , report its pKd.
Reply: ≤ 4.70

---

# assay system: HLA-B*15:01
# experiment: IEDB peptide-MHC binding, purified MHC/competitive/fluorescence; bounds were set here for any values at or beyond the usual limits of such assays
# protocol conditions: source organism: Sudan ebolavirus
assay metric: IC50 (µM)
Output spec: scalar in µM, unitless text.

Ask: Given the entry ISDRATRKY , what IC50 was observed with HLA-B*15:01?
Reply: 57.6

---

# assay system: HLA-A*03:01
# experiment: IEDB peptide-MHC binding, purified MHC/direct/fluorescence; filed as Kd, often an IC50 or EC50 that approximates it; bounds were set here for any values at or beyond the usual limits of such assays
# protocol conditions: source organism: Encephalitozoon cuniculi GB-M1
pKd: −log10 of the molar value.
Form field: pKd (one value per entry).

As a guide, the following entries are already answered.
SPLPITLKY = ≤ 4.70
EAYCALLCK = ≤ 4.70

Continue with the sequence presented below.
Ask: API: value(readout= pKd, system= HLA-A*03:01, query= HPYVFCALL )
Reply: ≤ 4.70

---

# assay system: HLA-A*68:02
# experiment: IEDB peptide-MHC binding, purified MHC/competitive/fluorescence; filed as Kd, often an IC50 or EC50 that approximates it; bounds were set here for any values at or beyond the usual limits of such assays
# protocol conditions: source organism: Vibrio cholerae 2740-80
pKd: −log10 of the molar value.
assay metric: pKd

Ask: Look at this sequence and give its reported pKd. LAVFPAMFW
Reply: ≤ 4.70

---

# assay system: HLA-A*02:16
# experiment: IEDB peptide-MHC binding, purified MHC/direct/fluorescence; filed as Kd, often an IC50 or EC50 that approximates it; bounds were set here for any values at or beyond the usual limits of such assays
# protocol conditions: source organism: Ebola virus Yambio0403
pKd: −log10 of the molar value.
assay metric: pKd

Ask: Which pKd value belongs to ESLLHQASW ?
Reply: ≤ 4.70

---

# assay system: HLA-A*31:01
# experiment: IEDB peptide-MHC binding, purified MHC/competitive/radioactivity; filed as Kd, often an IC50 or EC50 that approximates it; bounds were set here for any values at or beyond the usual limits of such assays
# protocol conditions: source organism: Vaccinia virus Copenhagen
assay metric: Kd

Ask: Param item = LMDSIFVST ; retrieve measured Kd.
Reply: ≥ 36 µM

---

# assay system: HLA-A*02:02
# experiment: IEDB peptide-MHC binding, purified MHC/competitive/radioactivity; filed as Kd, often an IC50 or EC50 that approximates it; bounds were set here for any values at or beyond the usual limits of such assays
# protocol conditions: source organism: SARS coronavirus Tor2
Each entry below carries its recorded Kd.
Give your result in nM as a bare value.

Consider the reported Kd for these sequences:
LMSFTILCL = 0.269
FLAHLQWFA = 0.104
FVVFLLVTL = 217
TQWSLFFFV = 79.6
MLFTKFFYL = 0.0849
AQFLYLYAL = 0.92

Ask: So what does the record say about Kd for NLAPHLLLIV ?
Reply: 5.1

Ask: Given the sequence LLLEWLAEV , what is its reported Kd?
Reply: 0.114

Ask: Please report the recorded Kd for ALIARCWYL .
Reply: 0.196

---

# assay system: HLA-A*26:01
# experiment: IEDB peptide-MHC binding, purified MHC/competitive/fluorescence; filed as Kd, often an IC50 or EC50 that approximates it; bounds were set here for any values at or beyond the usual limits of such assays
# protocol conditions: source organism: Escherichia coli F11
pKd: −log10 of the molar value.
assay metric: pKd

Ask: GET /values?readout=pKd&item= GSGDDTWLI
Reply: ≤ 4.70

---

# assay system: HLA-B*27:05
# experiment: IEDB peptide-MHC binding, purified MHC/competitive/fluorescence; filed as Kd, often an IC50 or EC50 that approximates it; bounds were set here for any values at or beyond the usual limits of such assays
# protocol conditions: source organism: Ehrlichia chaffeensis
assay metric: pKd
Just the number, please; pKd means minus log10 of the concentration in mol/L.

Ask: Given the sequence RVYKNYDPR , what is its reported pKd?
Reply: 5.97

---

This section presents sequences with their documented log10(Kd) values.
# assay system: HLA-B*18:01
# experiment: IEDB peptide-MHC binding, purified MHC/competitive/radioactivity; filed as Kd, often an IC50 or EC50 that approximates it; bounds were set here for any values at or beyond the usual limits of such assays
# protocol conditions: source organism: SARS coronavirus Tor2
log10 Kd, µM

Examples with their reported log10(Kd) follow.
SETLLPLTQY = -1.18
FEEAALCTFL = -0.32
QEYADVFHLY = -0.83

Ask: Look at this sequence and give its reported log10(Kd). SEVGICLST
Reply: 0.65

Ask: Requested read-out: log10(Kd). Entry: SEAFEYYHTL
Reply: 0.33

---

# assay system: HLA-A*02:16
# experiment: IEDB peptide-MHC binding, purified MHC/competitive/fluorescence; filed as Kd, often an IC50 or EC50 that approximates it; bounds were set here for any values at or beyond the usual limits of such assays
# protocol conditions: source organism: Escherichia coli F11
assay metric: Kd

Ask: What measured Kd goes with GSGDDTWLI ?
Reply: ≥ 20 µM

---

# assay system: HLA-A*02:01
# experiment: IEDB peptide-MHC binding, purified MHC/competitive/fluorescence; filed as Kd, often an IC50 or EC50 that approximates it; bounds were set here for any values at or beyond the usual limits of such assays
# protocol conditions: source organism: Listeria welshimeri serovar 6b str. SLCC5334
assay metric: pKd
Note on units: pKd is unitless, being -log10 of a concentration expressed in mol/L.

Ask: Request - read-out pKd | tested on HLA-A*02:01 | sequence ELYENKPDV
Reply: 6.29

---

# assay system: HLA-A*24:02
# experiment: IEDB peptide-MHC binding, purified MHC/direct/fluorescence; filed as Kd, often an IC50 or EC50 that approximates it; bounds were set here for any values at or beyond the usual limits of such assays
# protocol conditions: source organism: Influenza A virus (A/egret/Hong Kong/757.3/2002(H5N1))
pKd: −log10 of the molar value.
assay metric: pKd

Ask: Item EEFTMVGRR has what recorded pKd?
Reply: ≤ 4.70
